Assay: Cytotoxicity against human A875 cells assessed as growth inhibition after 72 hrs by MTT assay
Format: functional, cell-based
Conditions: A875, 72 h
Recorded measurements of pIC50, one per entry
Scale note: pIC50 = -log10(concentration in M).

Structure Smiles	pIC50
CC(C)c1ccc(/N=C2\CC[C@H]3[C@@H]4CC=C5C[C@@H](O)CC[C@]5(C)[C@H]4CC[C@]23C)cc1	4.21

Field: next compound
Looking up C[C@]12CC[C@H](O)CC1=CC[C@@H]1[C@@H]2CC[C@]2(C)/C(=N/N=C3\C(=O)Nc4ccccc43)CC[C@@H]12 , I see its pIC50 listed as 4.60
